Biological target: Isoleucine--tRNA ligase (Escherichia coli) (UniProt P00956)
Sequence (P00956 whole entry, looked up): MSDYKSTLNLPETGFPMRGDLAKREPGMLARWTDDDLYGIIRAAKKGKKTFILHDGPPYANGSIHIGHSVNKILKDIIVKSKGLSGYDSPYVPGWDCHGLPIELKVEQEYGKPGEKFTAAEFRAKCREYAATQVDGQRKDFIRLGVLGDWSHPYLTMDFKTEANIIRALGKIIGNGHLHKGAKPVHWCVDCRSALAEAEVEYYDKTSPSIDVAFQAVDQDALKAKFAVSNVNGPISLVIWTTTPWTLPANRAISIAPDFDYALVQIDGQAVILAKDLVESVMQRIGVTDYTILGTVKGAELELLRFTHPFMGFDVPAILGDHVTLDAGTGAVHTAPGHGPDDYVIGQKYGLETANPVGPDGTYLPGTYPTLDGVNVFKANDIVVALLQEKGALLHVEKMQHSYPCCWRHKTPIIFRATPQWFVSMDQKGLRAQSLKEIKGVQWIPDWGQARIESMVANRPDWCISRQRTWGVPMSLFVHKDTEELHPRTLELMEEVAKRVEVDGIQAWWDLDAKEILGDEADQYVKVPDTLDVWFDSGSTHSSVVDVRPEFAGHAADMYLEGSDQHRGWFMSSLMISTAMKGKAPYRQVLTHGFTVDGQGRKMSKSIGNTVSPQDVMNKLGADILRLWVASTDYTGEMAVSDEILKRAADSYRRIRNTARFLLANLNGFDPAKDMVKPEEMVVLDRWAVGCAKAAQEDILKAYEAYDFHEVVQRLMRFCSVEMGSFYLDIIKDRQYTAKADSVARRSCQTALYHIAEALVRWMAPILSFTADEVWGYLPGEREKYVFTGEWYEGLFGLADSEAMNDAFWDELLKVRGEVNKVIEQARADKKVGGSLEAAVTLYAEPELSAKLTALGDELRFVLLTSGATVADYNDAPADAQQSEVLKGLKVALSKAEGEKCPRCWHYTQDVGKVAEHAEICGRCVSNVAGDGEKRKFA
Assay: Inhibition of Escherichia coli isoleucyl-tRNA synthetase
assayMetric: IC50 (µM)

molecule: CCC(C)[C@H](N)C(=O)NS(=O)(=O)OC[C@H]1O[C@@H](c2nc(-c3ccc(OC)cc3)cs2)[C@H](O)[C@@H]1O (some centres undefined)
assayMetric: IC50
modifierSign: =
numericResult: 0.1
//
molecule: CCC(C)[C@H](N)C(=O)NS(=O)(=O)OC[C@H]1O[C@@H](c2nc(-c3ccc4cc(OC)ccc4c3)cs2)[C@H](O)[C@@H]1O (some centres undefined)
assayMetric: IC50
modifierSign: =
numericResult: 0.02
//
molecule: CC(C)[C@H](N)C(=O)NS(=O)(=O)OC[C@H]1O[C@@H](c2nc(-c3ccccc3)cs2)[C@H](O)[C@@H]1O
assayMetric: IC50
modifierSign: =
numericResult: 15
//
molecule: CCC(C)[C@H](N)C(=O)NS(=O)(=O)OC[C@H]1O[C@@H](c2nc(-c3ccc(Oc4ccccc4)cc3)cs2)[C@H](O)[C@@H]1O (some centres undefined)
assayMetric: IC50
modifierSign: =
numericResult: 0.045
//
molecule: CCC(C)[C@H](N)C(=O)NS(=O)(=O)OC[C@H]1O[C@@H](c2nc(CCc3ccccc3)cs2)[C@H](O)[C@@H]1O (some centres undefined)
assayMetric: IC50
modifierSign: =
numericResult: 0.03
//
molecule: N[C@@H](Cc1cnc[nH]1)C(=O)NS(=O)(=O)OC[C@H]1O[C@@H](c2nc(-c3ccccc3)cs2)[C@H](O)[C@@H]1O
assayMetric: IC50
modifierSign: >
numericResult: 100
//
molecule: CCC(C)[C@H](N)C(=O)NS(=O)(=O)OC[C@H]1O[C@@H](c2nc(-c3ccccc3OC)cs2)[C@H](O)[C@@H]1O (some centres undefined)
assayMetric: IC50
modifierSign: =
numericResult: 0.03
//
molecule: N[C@@H](Cc1ccccc1)C(=O)NS(=O)(=O)OC[C@H]1O[C@@H](c2nc(-c3ccccc3)cs2)[C@H](O)[C@@H]1O
assayMetric: IC50
modifierSign: >
numericResult: 100
//
molecule: C[C@H](N)C(=O)NS(=O)(=O)OC[C@H]1O[C@@H](c2nc(-c3ccccc3)cs2)[C@H](O)[C@@H]1O
assayMetric: IC50
modifierSign: =
numericResult: 100

* * *

Form: system (Alanine--tRNA ligase (Escherichia coli) (UniProt P00957)), quantity (IC50), values below.
assayMetric: IC50

smilesRepresentation: N[C@@H](Cc1cnc[nH]1)C(=O)NS(=O)(=O)OC[C@H]1O[C@@H](c2nc(-c3ccccc3)cs2)[C@H](O)[C@@H]1O
measuredTarget: Alanine--tRNA ligase (Escherichia coli) (UniProt P00957)
Sequence (P00957 whole entry, looked up): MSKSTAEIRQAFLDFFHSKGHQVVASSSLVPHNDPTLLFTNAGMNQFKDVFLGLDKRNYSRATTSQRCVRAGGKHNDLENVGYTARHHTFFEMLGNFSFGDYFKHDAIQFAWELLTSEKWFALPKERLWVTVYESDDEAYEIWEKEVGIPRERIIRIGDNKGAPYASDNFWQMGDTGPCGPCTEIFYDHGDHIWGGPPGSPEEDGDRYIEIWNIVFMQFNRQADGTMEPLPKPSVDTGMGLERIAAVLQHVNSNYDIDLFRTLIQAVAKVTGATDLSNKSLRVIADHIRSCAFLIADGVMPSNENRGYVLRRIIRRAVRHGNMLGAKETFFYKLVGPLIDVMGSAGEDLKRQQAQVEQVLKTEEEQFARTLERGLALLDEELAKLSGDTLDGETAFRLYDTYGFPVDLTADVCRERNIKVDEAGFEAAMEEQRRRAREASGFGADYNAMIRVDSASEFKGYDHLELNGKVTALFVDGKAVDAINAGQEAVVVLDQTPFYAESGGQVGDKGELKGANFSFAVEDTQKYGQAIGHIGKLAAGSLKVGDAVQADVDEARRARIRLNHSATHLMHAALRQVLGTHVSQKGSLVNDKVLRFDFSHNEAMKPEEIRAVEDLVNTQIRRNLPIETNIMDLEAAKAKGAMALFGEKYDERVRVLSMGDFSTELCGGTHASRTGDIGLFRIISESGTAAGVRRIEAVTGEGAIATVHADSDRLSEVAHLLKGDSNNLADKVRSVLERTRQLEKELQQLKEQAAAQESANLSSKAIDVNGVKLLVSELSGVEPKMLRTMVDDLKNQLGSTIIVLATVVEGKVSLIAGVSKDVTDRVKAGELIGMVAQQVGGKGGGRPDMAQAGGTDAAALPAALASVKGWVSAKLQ
result: > 100 µM

smilesRepresentation: CC(C)[C@H](N)C(=O)NS(=O)(=O)OC[C@H]1O[C@@H](c2nc(-c3ccccc3)cs2)[C@H](O)[C@@H]1O
measuredTarget: Alanine--tRNA ligase (Escherichia coli) (UniProt P00957)
result: > 100 µM

* * *

Entries with reported pIC50 on Leucine--tRNA ligase (Escherichia coli) (UniProt P07813)
Sequence (P07813 whole entry, looked up): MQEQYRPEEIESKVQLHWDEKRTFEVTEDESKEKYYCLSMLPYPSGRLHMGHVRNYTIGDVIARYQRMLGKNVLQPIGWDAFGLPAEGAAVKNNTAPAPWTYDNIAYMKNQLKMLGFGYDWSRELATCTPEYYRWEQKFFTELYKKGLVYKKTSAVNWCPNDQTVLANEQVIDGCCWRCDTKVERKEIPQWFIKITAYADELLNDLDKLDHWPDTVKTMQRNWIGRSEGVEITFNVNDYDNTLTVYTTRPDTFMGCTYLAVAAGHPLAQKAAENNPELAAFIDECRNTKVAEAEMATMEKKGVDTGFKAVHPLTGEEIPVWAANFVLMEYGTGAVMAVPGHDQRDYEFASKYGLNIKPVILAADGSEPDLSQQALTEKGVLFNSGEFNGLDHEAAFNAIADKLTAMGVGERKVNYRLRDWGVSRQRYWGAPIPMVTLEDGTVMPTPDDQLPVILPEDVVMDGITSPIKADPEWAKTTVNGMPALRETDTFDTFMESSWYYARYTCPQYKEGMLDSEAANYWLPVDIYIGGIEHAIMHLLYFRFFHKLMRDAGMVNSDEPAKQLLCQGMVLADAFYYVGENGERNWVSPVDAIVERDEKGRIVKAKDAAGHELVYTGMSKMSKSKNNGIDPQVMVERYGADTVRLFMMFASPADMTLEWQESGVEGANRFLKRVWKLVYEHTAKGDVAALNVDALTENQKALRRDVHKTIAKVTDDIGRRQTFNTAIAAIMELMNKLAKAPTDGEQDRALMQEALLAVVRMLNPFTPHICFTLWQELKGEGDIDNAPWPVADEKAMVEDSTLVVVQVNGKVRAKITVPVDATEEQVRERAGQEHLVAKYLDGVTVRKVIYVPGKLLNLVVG
pIC50: −log10 of the molar value.

smilesRepresentation: CC(C)C[C@H](N)C(=O)NS(=O)(=O)OC[C@H]1O[C@@H](c2nc(CCc3ccc(Oc4ccccc4)cc3)cs2)[C@H](O)[C@@H]1O
modifierSign: =
pIC50: 8.22
//
smilesRepresentation: CC(C)C[C@H](N)C(=O)NS(=O)(=O)OC[C@H]1O[C@@H](c2nc(-c3ccc(Oc4ccccc4)cc3)cs2)[C@H](O)[C@@H]1O
modifierSign: =
pIC50: 8.80
//
smilesRepresentation: N[C@@H](Cc1ccccc1)C(=O)NS(=O)(=O)OC[C@H]1O[C@@H](c2nc(-c3ccccc3)cs2)[C@H](O)[C@@H]1O
modifierSign: <
pIC50: 4.00
